- system: Tau40 P301L protein (human)
- method.summary: cell-based or functional assay
Square brackets hold non-standard residues; d marks the D form. Ends that are not written are not given here.
Here, each record is paired with measured IC50, Tau40 assay (ThT) data.
Quick note: give the figure in µM, leave out the unit.

[[record]]
binder = "[dW][dE][dL][dK][dV][dR][dW][dW] [welkvrww (PEPTIDE ID NO: 264)]"
measured_quantity = "IC50, Tau40 assay (ThT)"
unit_info = "µM"
observed_result = 1.39

[[record]]
binder = "[dF][dR][dV][dK][dI][dQ][dH][dW] [frvkiqhw (PEPTIDE ID NO: 120)]"
measured_quantity = "IC50, Tau40 assay (ThT)"
unit_info = "µM"
observed_result = 2.49


Q. Give the reported IC50, Tau40 assay (ThT) for this binder. [dL][dK][dI][dR][dI][dE][dY] [lkiriey (PEPTIDE ID NO: 324)]
A. 2.63
